- Assay details: Pharmacokinetic study in mice
- Test settings: male, CD-1, mouse, brain, ip, 30 mg/kg
Quantity measured: k el (s⁻¹)
Please give a number only; it is taken to be in s⁻¹.

GET /values?readout=k el&item= O=c1ncn2nc(Sc3ccc(F)cc3F)ccc2c1-c1c(Cl)cccc1Cl [neflamapimod, reference compound] 1.1e-05

---

- Assay details: Pharmacokinetic study in mice
- Test settings: male, CD-1, mouse, serum and brain, ip, 2.5 mg/kg
Quantity measured: half-life

GET /values?readout=half-life&item= CCN(C)C(=O)Oc1cccc([C@H](C)N(C)C)c1 [rivastigmine, reference compound] ~30 min

---

System: p38α MAPK | Read-out: RA at 100 µM
Please give a number only; it is taken to be in %.

Field: example entries. Status: answers known.
[
  {
    "Compound": "CC(O)(O)CNC(=O)c1ccc(-c2cc(C(=O)NC3CC3)cc(F)c2O)nc1",
    "Unit spec": "%",
    "Recorded result": 2
  },
  {
    "Compound": "CN(C)CCNC(=O)c1cc2nn(CC3CC3)cc2cc1Oc1ccc(F)cc1F",
    "Unit spec": "%",
    "Recorded result": 70.2
  },
  {
    "Compound": "COCC1CCCN(CCNC(=O)c2cc3nn(CC4CCCCC4)cc3cc2Oc2ccc(F)cc2F)C1 (stereo not drawn)",
    "Unit spec": "%",
    "Recorded result": 93
  },
  {
    "Compound": "CC(C)Cn1cc2cc(Oc3ccc(F)cc3)c(C(=O)NCCN(C)C)cc2n1",
    "Unit spec": "%",
    "Recorded result": 89.3
  },
  {
    "Compound": "CN(C)CCNC(=O)c1cc2c(cnn2C)cc1Cc1ccc(F)cc1F",
    "Unit spec": "%",
    "Recorded result": 88.2
  },
  {
    "Compound": "CN(C)CCNC(=O)c1cc2c(cc1Cc1ccc(F)cc1F)CNN2C",
    "Unit spec": "%",
    "Recorded result": 89.6
  },
  {
    "Compound": "CN(C)CCNC(=O)c1cc2nn(Cc3ccccc3)cc2cc1Oc1ccc(F)cc1F",
    "Unit spec": "%",
    "Recorded result": 59.8
  },
  {
    "Compound": "Cc1ccc(-c2cc(C(C)(C)C)nn2-c2ccc(S(N)(=O)=O)cc2)cc1",
    "Unit spec": "%",
    "Recorded result": 34
  }
]

Provide value of RA at 100 µM for this record tested with p38α MAPK: `COc1nccc(-c2c(-c3ccc(F)cc3)ncn2[C@H]2CC[C@H](O)CC2)n1` 1

The reported measurements were obtained from paper PMC12406203.
